Reported pIC50 values for the following compounds.
- ASSAYED TARGET: PAD4 (Homo sapiens (Human), UniProt Q9UM07)
- Sequence (Q9UM07 whole entry, species assumed): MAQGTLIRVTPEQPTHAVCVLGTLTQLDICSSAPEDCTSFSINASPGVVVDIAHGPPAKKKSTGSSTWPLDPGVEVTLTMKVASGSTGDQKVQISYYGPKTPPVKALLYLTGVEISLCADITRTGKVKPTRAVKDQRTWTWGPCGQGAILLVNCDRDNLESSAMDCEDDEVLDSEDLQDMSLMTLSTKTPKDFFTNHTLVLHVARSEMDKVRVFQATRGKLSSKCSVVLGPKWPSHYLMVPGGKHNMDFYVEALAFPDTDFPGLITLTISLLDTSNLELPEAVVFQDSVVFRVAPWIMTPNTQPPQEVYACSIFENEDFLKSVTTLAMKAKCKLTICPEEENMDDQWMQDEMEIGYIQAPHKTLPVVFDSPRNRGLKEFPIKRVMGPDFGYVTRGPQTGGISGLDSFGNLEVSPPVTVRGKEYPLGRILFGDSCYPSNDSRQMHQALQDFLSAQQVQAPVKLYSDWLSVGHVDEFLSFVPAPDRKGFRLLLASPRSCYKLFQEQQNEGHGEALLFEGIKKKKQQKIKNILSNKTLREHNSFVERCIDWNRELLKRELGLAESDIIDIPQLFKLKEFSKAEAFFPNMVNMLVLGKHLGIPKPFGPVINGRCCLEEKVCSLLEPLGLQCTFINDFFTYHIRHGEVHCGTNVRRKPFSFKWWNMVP
- PROTOCOL: PAD4 enzyme activity colorimetric assay (citrullination of BAEE)
- Assay type: biochemical
- SETTINGS: 0.2 μg PAD4, 5 mM BAEE, 37° C.
pIC50: −log10 of the molar value.

COMPOUND: CN(C)c1ccc2cc(C(=O)N[C@@H](CCCNC(=N)CCl)C(=O)NCc3ccc(NC(=O)CCCNC(=O)CCCCC4SCC5NC(=O)NC54)cc3)ccc2c1 (some centres unmarked)
pIC50: 5.30 to 6.00

Reported pIC50 of `CN(C)c1ccc2cc(C(=O)N[C@@H](CCCNC(=N)CCl)C(=O)NCc3ccccc3)ccc2c1` : 5.30 to 6.00

###

Reported IC50 values for the following compounds.
- ASSAYED TARGET: PAD4 (Homo sapiens (Human))
- PROTOCOL: PAD4 enzyme activity colorimetric assay (citrullination of BAEE)
- Assay type: biochemical
- SETTINGS: read-out: 50% inhibition PAD4 activity; 0.2 μg PAD4, 5 mM BAEE, 37° C.

ITEM SMILES: N=C(CCl)NCCC[C@H](NC(=O)c1cccc(-c2ccccc2)c1)C(=O)NCc1ccccc1
IC50: ~5 µM
//
ITEM SMILES: N=C(CCl)NCCC[C@H](NC(=O)c1ccc(-c2ccccc2)cc1)C(=O)NCc1ccccc1
IC50: > 20 µM

Reported IC50 of `N=C(CCl)NCCC[C@H](NC(=O)c1ccccc1)C(=O)NCc1ccccc1` : > 20 µM
